Experiment: Open field locomotor study in rats: plasma and brain concentrations 4 hrs post dosing
Assay type: in vivo
Details: male, Sprague Dawley, rat, brain, oral, 10 mg/kg, read-out: Brain Mean ± Std Dev
recorded.endpoint: concentration at 4 h (ng/g)
Express it in ng/g; write the number only.

I'd like to know its concentration at 4 h. The compound in question is `O=c1cc(NC2CCN(S(=O)(=O)C(F)(F)F)CC2)c2cc(C(c3ccc(Cl)cc3)c3ccc(Cl)cc3)ccc2[nH]1` 22.7

* * *

Target: Human CB2R (Cannabinoid receptor 2) (Homo sapiens (Human), UniProt P34972)
Sequence (P34972 whole entry): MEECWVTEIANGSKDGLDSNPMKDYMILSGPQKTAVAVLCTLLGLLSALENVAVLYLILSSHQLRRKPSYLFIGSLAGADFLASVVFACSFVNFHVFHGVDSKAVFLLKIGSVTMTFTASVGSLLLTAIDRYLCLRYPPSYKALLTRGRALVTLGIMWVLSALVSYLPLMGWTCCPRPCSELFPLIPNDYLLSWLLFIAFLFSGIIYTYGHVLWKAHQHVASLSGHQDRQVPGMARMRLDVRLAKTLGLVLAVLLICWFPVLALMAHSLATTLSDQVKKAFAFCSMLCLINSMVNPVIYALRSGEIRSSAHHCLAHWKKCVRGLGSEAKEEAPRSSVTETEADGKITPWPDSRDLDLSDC
Assay: CB-2 in vitro cAMP assay (HTRF), inverse agonism
Conditions: mean where tested more than once
recorded.endpoint: EC50

compound: CC(Nc1cc(=O)[nH]c2ccc(C(c3ccc(Cl)cc3)c3ccc(Cl)cc3)cc12)c1cccc(C(F)(F)F)c1 (stereo not drawn)
EC50: > 10 µM
//
compound: O=C1CCCN1c1cc(C(c2ccc(Cl)cc2)c2ccc(Cl)cc2)cc2c(NC3CCN(S(=O)(=O)C(F)(F)F)CC3)cc(=O)[nH]c12
EC50: 0.67 µM
//
compound: OC(c1ccc(Cl)cc1)(c1ccc2nccc(/C=C\c3ccccc3)c2c1)c1cscn1 (mixture of isomers)
EC50: 0.2 µM
//
compound: O=c1cc(CCc2cccc(Cl)c2)c2cc(C(c3ccc(Cl)cc3)c3nccs3)ccc2[nH]1 (stereo not drawn)
EC50: > 10 µM
//
compound: O=C(O)COc1cc(NC2CCN(S(=O)(=O)C(F)(F)F)CC2)c2cc(C(c3ccc(Cl)cc3)c3ccc(Cl)cc3)ccc2n1
EC50: 6.7 µM

Sample Cc1ccc(/C=C/c2cc(=O)[nH]c3ccc(C(c4ccc(Cl)cc4)c4cccs4)cc23)cc1 (stereo not drawn) — what was its EC50? > 10 µM

Another: CC(C)(C)OC(=O)N1CC[C@@H](Nc2cc(=O)[nH]c3ccc(C(c4ccc(Cl)cc4)c4nccs4)cc23)C1 (stereo partly drawn) > 10 µM

Try the compound O=c1cc(/C=C/c2ccc(Cl)cc2)c2cc(C(c3ccccc3)c3ccc(Cl)cc3)ccc2[nH]1 (stereo not drawn) > 10 µM

Cool, now O=c1cc(NC2CCN(S(=O)(=O)C(F)(F)F)CC2)c2cc(C(Oc3ccc(Cl)cc3)c3ccc(Cl)cc3)ccc2[nH]1 (stereo not drawn) > 10 µM

Let us now turn to COc1ccc(C(O)(c2ccc(Cl)cc2)c2ccc3[nH]c(=O)cc(NC4CCN(S(=O)(=O)C(F)(F)F)CC4)c3c2)cc1 (stereo not drawn) 8.28 µM

What do we get for `O=C(O)c1ccc(S(=O)(=O)N2CCC(Nc3cc(=O)[nH]c4ccc(C(c5ccc(Cl)cc5)c5ccc(Cl)cc5)cc34)CC2)o1` ? 3.93 µM

What would you report for `O=C(O)c1cccc(CN2CCC(Nc3cc(=O)[nH]c4ccc(C(c5ccc(Cl)cc5)c5ccc(Cl)cc5)cc34)CC2)c1` ? > 10 µM

Okay, and `CC(C)(C)OC(=O)COc1cc(NC2CCN(S(=O)(=O)C(F)(F)F)CC2)c2cc(C(c3ccc(Cl)cc3)c3ccc(Cl)cc3)ccc2n1` ? > 10 µM

# iterate: O=c1cc(/C=C/c2ccccc2)c2cc(C(c3ccc(Cl)cc3)c3cccs3)ccc2[nH]1 (stereo not drawn) > 10 µM

Same thing, different compound: O=c1cc(/C=C/c2ccccc2)c2cc(C(c3ccc(Cl)cc3)c3ccc(Cl)s3)ccc2[nH]1 (stereo not drawn) > 10 µM

Lookup `O=C(O)CCCNc1cc(C(c2ccc(Cl)cc2)c2ccc(Cl)cc2)cc2c(NC3CCN(S(=O)(=O)C(F)(F)F)CC3)cc(=O)[nH]c12` 0.46 µM

Same thing, different compound: O=c1cc(NC2CCN(S(=O)(=O)C(F)(F)F)CC2)c2cc(C(O)(c3ccc(F)cc3)c3ccc(Cl)cc3)ccc2[nH]1 (stereo not drawn) 9.7 µM

`O=C(c1ccccc1)N1CCC(Nc2cc(=O)[nH]c3ccc(C(c4ccc(Cl)cc4)c4ccc(Cl)cc4)cc23)CC1` , same question. 4.5 µM

Further, for O=c1cc(NC2CCN(S(=O)(=O)C(F)(F)F)CC2)c2cc(C(c3ccc(Cl)cc3)c3ccc(Cl)c(Cl)c3)ccc2[nH]1 (stereo not drawn) ? > 14 µM

Now the same for COc1ccc(C(c2ccc3nccc(/C=C/c4ccccc4)c3c2)c2nccs2)cc1 (stereo not drawn) > 10 µM

Check `O=C(CC(F)(F)F)N1CCC(Nc2cc(=O)[nH]c3ccc(C(c4ccc(Cl)cc4)c4ccc(Cl)cc4)cc23)CC1` too. 4.2 µM

Follow-up entry: Clc1ccc(C(c2ccc3nccc(/C=C/c4ccccc4)c3c2)c2cccs2)cc1 (stereo not drawn) > 10 µM

Entry to check: `NC(=O)CCC(=O)N1CCC(Nc2cc(=O)[nH]c3ccc(C(c4ccc(Cl)cc4)c4ccc(Cl)cc4)cc23)CC1` > 10 µM

Follow-up entry: `O=C(O)COc1ccc(Nc2cc(=O)[nH]c3ccc(C(c4ccc(Cl)cc4)c4ccc(Cl)cc4)cc23)cc1` > 10 µM

Now this one: `NC(=O)c1ccc(Nc2cc(=O)[nH]c3ccc(C(c4ccc(Cl)cc4)c4ccc(Cl)cc4)cc23)cc1` > 10 µM

Similarly, `CC(C)(C)OC(=O)COc1ccc(Nc2cc(=O)[nH]c3ccc(C(c4ccc(Cl)cc4)c4ccc(Cl)cc4)cc23)cc1` ? > 10 µM

Same lookup for OC(c1ccc(Cl)cc1)(c1ccc2nccc(/C=C/c3ccccc3)c2c1)c1cccs1 (stereo not drawn) , please. > 10 µM
